- Read-out: Interleukin-8 (IL8), CXCL8 (gene 3576)
- assay.text: BSK_hDFCGF_IL8: BioMAP Diversity Plus: hDFCGF Assay for Interleukin-8 (IL8) Biomarker Activity (AID 2283058)
- particulars: primary human foreskin fibroblasts; actives raise or lower the signal
The source made the active and inactive calls. The calls were made as follows: active = hit-call score of the fitted dose curve at least 0.9, where 1 is the maximum; inactive = score below 0.9.
# output must be one of t (active), f (inactive)

Query string: Tell me the assay call for CCCCCCCCCCC1CO1 (configuration not stated) please.
Result string: t

---

- tested.target: Cellular tumor antigen p53 (Homo sapiens)
- assay.text: TOX21_p53_BLA_p2_ratio: Tox21 HCT-116 p53 Agonism Beta-lactamase Assay, Ratio, Phase 2 (AID 2283592)
Inconclusive results are not listed. The source made the active and inactive calls. Rule for the calls: active = hit-call score of the fitted dose curve at least 0.9, where 1 is the maximum; inconclusive = response in the unintended direction; inactive = score below 0.9. Where a SMILES comes first, the peptide text is derived from it. Bridges are numbered along the chain shown (N, C = ends). [ ]: non-standard residue; d: D form. The star is where a group is joined. Ileψ(thiazoline)Cys = CC[C@H](C)[C@H](N)C1=N[C@H](C(=O)*)CS1; dOrn = NCCC[C@@H](N)C(=O)O
Hi there, use one of these labels in your reply, thanks! t (active), f (inactive)

Recorded results for 3 compounds are shown here.
- compound: "FC(F)(F)C(Cl)Br (stereo unspecified)"
  group.label: "f"
- compound: "Cc1cccc2cccnc12"
  group.label: "f"
- compound: "O=C1c2ccccc2C(=O)c2cc(O)ccc21"
  group.label: "t"

Query string: Any idea what this test logged for O=C(NCC(O)CO)c1c(I)c(C(=O)NCC(O)CO)c(I)c(N(CCO)C(=O)CO)c1I (stereo unspecified) ?
Result string: f

Query string: Test call for this compound, please: CCCCC(CC)COCCCN (stereo unspecified)
Result string: f

Query string: For this compound, state the assay outcome: CC[C@H](C)[C@H](N)C1=N[C@H](C(=O)N[C@@H](CC(C)C)C(=O)N[C@H](CCC(=O)O)C(=O)N[C@H](C(=O)N[C@H]2CCCCNC(=O)[C@H](CC(N)=O)NC(=O)[C@@H](CC(=O)O)NC(=O)[C@H](Cc3cnc[nH]3)NC(=O)[C@@H](Cc3ccccc3)NC(=O)[C@H]([C@@H](C)CC)NC(=O)[C@@H](CCCN)NC2=O)[C@@H](C)CC)CS1 ({Ileψ(thiazoline)Cys}-L[dE]IK[dOrn]I[dF]H[dD]N; lactam 4-C)
Result string: f

---

- assay.text: TOX21_p53_BLA_p3_viability: Viability Assessment in the Tox21 HCT-116 p53 Agonism Beta-lactamase Assay, Phase 3 (AID 2283593);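 also: cells exposed to compound for 16 h before reading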
Records with an inconclusive call do not appear. Calls of active or inactive are those of the source. Rule for the calls: active = hit-call score of the fitted dose curve at least 0.9, where 1 is the maximum; inconclusive = response in the unintended direction; inactive = score below 0.9.
Please answer using one outcome listed in active, inactive

- molecule: "Clc1ccc(C(Cn2ccnc2)OCc2c(Cl)cccc2Cl)c(Cl)c1 (stereo not drawn)"
  group.label: "inactive"
- molecule: "C1COC(NC(C2CC2)C2CC2)=N1"
  group.label: "inactive"
- molecule: "NC(=O)C1c2ccccc2CCc2ccccc21"
  group.label: "inactive"
- molecule: "CCOc1ccc(Cc2nccc3cc(OCC)c(OCC)cc23)cc1OCC"
  group.label: "inactive"
- molecule: "COCCCN"
  group.label: "inactive"

Query string: Tell me the assay call for NC(=O)Nc1ccc(Cl)c(Cl)c1 please.
Result string: inactive

Query string: Please indicate how the test categorized OCCN1CCN(CCCN2c3ccccc3Sc3ccc(C(F)(F)F)cc32)CC1 .
Result string: inactive
